System: SW-620
Experiment: NCI tumour cell line growth inhibition, 48 h
The source made the active and inactive calls. Cut-off read from the data, not from the text of the source: active = GI50 up to about 1.1 µM and inactive = higher.
Property measured: GI50

| Molecule | Recorded measurement |
| --- | --- |
| CCOC(=O)C(=O)Nc1c(C(C)C)cccc1C(C)C | > 100 µM (inactive) |
| C=CCCCCCCCC(O)C1C[C@H](O)C(CCCCC)O1 (stereo partly specified) | 21.1 µM (inactive) |
| C=C(/C=C/C=C(/CCC=C(C)C)COC(C)=O)[C@@H]1CC[C@]2([C@H](CCCO)/C(=C(/C)C=O)CC[C@]2(C)O)[C@@H]1O | 2.42 µM (inactive) |
| NS(=O)(=O)c1nnc(NSc2ccc([N+](=O)[O-])cc2)s1 | > 100 µM (inactive) |
| CCOC(=O)CCC(NC(=O)c1ccc(OCc2nc3ccccc3n3cccc23)cc1)C(=O)OCC (stereo unspecified) | 11.6 µM (inactive) |
| COC(=O)C(NC(=O)OC(C)(C)C)P(=O)(OC)OC (stereo unspecified) | > 100 µM (inactive) |
| COC(=O)C1(Cc2ccccc2)Cc2ccccc2C1O (stereo unspecified) | > 100 µM (inactive) |
| Cc1ccc(S(=O)(=O)CN2C(=O)C(c3ccccc3)(c3ccccc3)C23OC(c2ccc(Cl)cc2)=CC3=O)cc1 (stereo unspecified) | > 10 µM (inactive) |

# batch: return GI50 for each of the 5 molecules below
1. C/C=C/[C@@]1(OC(=O)c2ccccc2)C[C@@H]2CCCC[C@@H]21
2. CP(C)C.[Ag][I]
3. CC(C)=CCc1c2c(c3occ(-c4ccc(O)cc4)c(=O)c3c1O)CC(C(C)(C)O)O2 (stereo unspecified)
4. N#CC(CCN1CCC(Nc2ccccc2)(c2nnnn2C2CCCCC2)CC1)(c1ccccc1)c1ccccc1
5. COc1ccc2c(c1)c1c(n2CCN2CCOCC2)-c2cccc(OC)c2CC1

["23 µM (inactive)", "> 100 µM (inactive)", "21.7 µM (inactive)", "> 100 µM (inactive)", "36.8 µM (inactive)"]

# batch: return GI50 for each of the 3 molecules below
1. COC(=O)C(C(=O)C(=O)Nc1cccc([N+](=O)[O-])c1)c1nc2ccc([N+](=O)[O-])cc2nc1O (stereo unspecified)
2. CC(C)NC(=O)OCc1nnn2c1CCC2
3. NC(=S)N/N=C1\C(=O)N(c2cccc([N+](=O)[O-])c2)C(=O)C1C(=O)Nc1cccc([N+](=O)[O-])c1 (stereo unspecified)

1. > 100 µM (inactive)
2. > 100 µM (inactive)
3. > 100 µM (inactive)

# batch: return GI50 for each of the 3 molecules below
1. O=C1O[C@H]2[C@H](O)[C@@H](OC(=O)c3cc(O)c(O)c4c3[C@@H]3C1=CC(=O)C(O)(O)C3(O)O4)[C@H](OC(=O)c1cc(O)c(O)c(O)c1)O[C@@H]2CO (stereo partly specified)
2. CN(C)CCNc1ncnc2[nH]c(-c3ccc4ccccc4c3)nc12
3. COC1=CC(=O)C(C2CC(=O)c3c(O)cc(O)cc3O2)=CC1=O (stereo unspecified)

["> 100 µM (inactive)", "> 100 µM (inactive)", "20.2 µM (inactive)"]

###

For each of the compounds below, state its GI50.
System: K562
Experiment: NCI tumour cell line growth inhibition, 48 h
Active and inactive are the calls of the source. No stated cut-off is given here; in the data, active = GI50 up to about 1.1 µM and inactive = higher.

| Compound | Property measured | Recorded measurement |
| --- | --- | --- |
| O=[N+]([O-])c1cc(I)cc(/C=N/NS(=O)(=O)c2ccc(F)cc2)c1O | GI50 | 21.6 µM (inactive) |
| O=C(Nc1ccc(C(F)(F)F)cc1[N+](=O)[O-])C(=O)C1NC(=S)NC1=O (stereo unspecified) | GI50 | > 100 µM (inactive) |
| CC(=O)CCn1ncc(Cl)c(Cl)c1=O | GI50 | 3.51 µM (inactive) |
| Cc1ccc(S(=O)(=O)NCCCSCCN)cc1 | GI50 | > 100 µM (inactive) |

# batch: return GI50 for each of the 7 compounds below
1. COC(=O)CC(C)(N[S+]([O-])c1ccc(C)cc1)c1ccccc1 (stereo unspecified)
2. O=c1cc(N2CCCC2)[nH]c(=O)n1-c1ccc(Cl)cc1
3. COC1CC(C)(NC(=O)C(F)(F)F)C2OC(c3ccccc3)OCC2O1 (stereo unspecified)
4. NC(=O)NC(=O)c1cnccn1
5. O=C1C(=Cc2ccccc2O)N=C(c2ccccc2)N1n1c(-c2ccccc2)nc2ccccc2c1=O
6. O=C(O)CCC(NC(=O)c1ccc(Oc2nc3ccccc3nc2-c2ccccc2)cc1)C(=O)O (stereo unspecified)
7. O=C(O)CC12CC3CC(CC(O)(C3)C1)C2

["> 100 µM (inactive)", "> 100 µM (inactive)", "> 100 µM (inactive)", "> 100 µM (inactive)", "29.6 µM (inactive)", "> 100 µM (inactive)", "> 100 µM (inactive)"]
